Source of measurements: paper PMC9292215

test: Plasma pharmacokinetics of BIA 10-2474 and metabolites
Type: in vivo, human
measurement.conditions: human, plasma, oral, 2.5 mg, tmax, 2.5 mg once daily, Day 1

- compound: "CN(C(=O)n1cnc(-c2ccc[n+]([O-])c2)c1)C1CCCCC1 [BIA 10-2474]"
  output.unit: "h"
  Tmax: 2

----------
test: Plasma pharmacokinetics of BIA 10-2474 and metabolites
Format: in vivo, human
measurement.conditions: human, plasma, oral, 10 mg, AUC0–τ, 10 mg once daily, Day 10
result.type: AUC (ng·h/mL)

- compound: "CN(C(=O)n1cnc(-c2ccc[n+]([O-])c2)c1)C1CCCCC1 [BIA 10-2474]"
  result.type: "AUC"
  reported.measurement: 2200

----------
test: Plasma pharmacokinetics of BIA 10-2474 and metabolites
Assay type: in vivo, human
measurement.conditions: human, plasma, oral, 5 mg, AUC0–τ, 5 mg once daily, Day 1
result.type: AUC (ng·h/mL)

- compound: "CN(C(=O)n1cnc(-c2ccc[n+]([O-])c2)c1)C1CCCCC1 [BIA 10-2474]"
  result.type: "AUC"
  output.unit: "ng·h/mL"
  reported.measurement: 708

----------
test: Plasma pharmacokinetics of BIA 10-2474 and metabolites
Type: in vivo, human
measurement.conditions: both, human, plasma, oral, 1.25 mg, tmax, single dose 1.25 mg
result.type: Tmax (h)

- compound: "CN(C(=O)n1cnc(-c2ccc[n+]([O-])c2)c1)C1CCCCC1 [BIA 10-2474]"
  result.type: "Tmax"
  reported.measurement: 1.5
